- Tested on: rice
- protocol: Low temperature assay on rice seedlings
- Type: in vivo
- settings: 1 mg/l, 3 °C, 3 days
parameter.measured: Weight of root

compound	recorded.value
CC(C)[C@H](C)[C@@H](O)[C@H](O)[C@@H](C)[C@H]1CCC2C3COC(=O)C4C[C@H](O)[C@H](O)C[C@]4(C)C3CC[C@@]21C (stereo partly drawn)	2.5 g
CC(C)C[C@@H](O)[C@H](O)[C@@H](C)[C@H]1CCC2C3CC(=O)C4C[C@H](O)[C@H](O)C[C@]4(C)C3CC[C@@]21C (stereo partly drawn)	2.5 g

As a next step, examine the compound that follows.
Request: Returns the measured Weight of root for the input compound. Input: C=C(C(C)C)[C@@H](O)[C@H](O)[C@@H](C)[C@H]1CCC2C3COC(=O)C4C[C@H](O)[C@H](O)C[C@]4(C)C3CC[C@@]21C (stereo partly drawn)
Result: 2.5 g
